assay: in vitro; details: human, microsomes, pH 7.4
READOUT_KIND: half-life

query: Requested field: half-life. Item: CC(=O)N1CCN(c2ccc(OCC3COC(Cn4ccnc4)(c4ccc(Cl)cc4Cl)O3)cc2)CC1 (stereo not shown)
result: > 2 h

###

test: in vitro; settings: human, Caco-2
READOUT_KIND: efflux ratio at 5 μM
Output: the number by itself.

query: Please give the measured efflux ratio at 5 μM for this compound: C[C@H]1O[C@@H](O[C@H]2[C@@H](O)C[C@H](O[C@H]3[C@@H](O)C[C@H](O[C@H]4CC[C@@]5(C)[C@H](CC[C@@H]6[C@@H]5C[C@@H](O)[C@]5(C)[C@@H](C7=CC(=O)OC7)CC[C@]65O)C4)O[C@@H]3C)O[C@@H]2C)C[C@H](O)[C@@H]1O [Digoxin]
result: 19.7
